// values below are reported fraction unbound
Target: human serum albumin (HSA) (Homo sapiens, UniProt P02768)
Sequence (P02768 25-609): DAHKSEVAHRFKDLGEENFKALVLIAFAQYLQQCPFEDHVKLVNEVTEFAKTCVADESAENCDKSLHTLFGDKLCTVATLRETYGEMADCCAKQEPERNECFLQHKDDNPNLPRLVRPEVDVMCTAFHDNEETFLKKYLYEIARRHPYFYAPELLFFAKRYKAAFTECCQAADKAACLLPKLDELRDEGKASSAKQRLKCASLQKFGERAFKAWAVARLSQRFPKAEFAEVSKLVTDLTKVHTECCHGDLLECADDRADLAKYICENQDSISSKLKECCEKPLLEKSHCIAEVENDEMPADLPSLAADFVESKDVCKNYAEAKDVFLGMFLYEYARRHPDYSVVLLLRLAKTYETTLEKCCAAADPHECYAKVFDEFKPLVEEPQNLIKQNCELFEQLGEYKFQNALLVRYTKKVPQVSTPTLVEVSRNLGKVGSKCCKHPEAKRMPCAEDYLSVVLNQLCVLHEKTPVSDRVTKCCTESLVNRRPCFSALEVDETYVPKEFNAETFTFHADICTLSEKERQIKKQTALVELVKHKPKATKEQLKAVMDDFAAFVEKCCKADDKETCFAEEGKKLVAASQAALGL
Assay: Binding to human serum albumin (HSA)
Conditions: human, human serum albumin
// return a plain number; no unit text

Before answering, review these 4 worked examples.
SMILES_REPRESENTATION: CN1c2ccc(OC(=O)NC3CCCCC3)cc2[C@]2(C)CCO[C@H]12
fraction unbound: 0.17
--
SMILES_REPRESENTATION: COc1cc(NC(=O)Oc2ccc3c(c2)[C@]2(C)CCO[C@@H]2N3C)cc(OC)c1
fraction unbound: 0.09
--
SMILES_REPRESENTATION: CN1c2ccc(OC(=O)Nc3cccnc3)cc2[C@]2(C)CCO[C@H]12
fraction unbound: 0.31
--
SMILES_REPRESENTATION: Cc1cc(C)cc(NC(=O)Oc2ccc3c(c2)[C@]2(C)CCO[C@@H]2N3C)c1
fraction unbound: 0.04

Q) For "CN1c2ccc(OC(=O)Nc3ccc(C(F)(F)F)cc3)cc2[C@]2(C)CCO[C@H]12" , what is its reported fraction unbound?
A) 0.07

Q) # get_value(readout='fraction unbound', item= "CN1c2ccc(OC(=O)Nc3ccc(OC(F)(F)F)cc3)cc2[C@]2(C)CCO[C@H]12" )
A) 0.33

Q) Query: fraction unbound; subject: "CC[C@H]1C[C@@]2(C)c3cc(OC(=O)Nc4ccccc4)ccc3N(C)[C@H]2O1"
A) 0.07
